Target: Aminopeptidase N (Sus scrofa)
Sequence (P15145 whole entry): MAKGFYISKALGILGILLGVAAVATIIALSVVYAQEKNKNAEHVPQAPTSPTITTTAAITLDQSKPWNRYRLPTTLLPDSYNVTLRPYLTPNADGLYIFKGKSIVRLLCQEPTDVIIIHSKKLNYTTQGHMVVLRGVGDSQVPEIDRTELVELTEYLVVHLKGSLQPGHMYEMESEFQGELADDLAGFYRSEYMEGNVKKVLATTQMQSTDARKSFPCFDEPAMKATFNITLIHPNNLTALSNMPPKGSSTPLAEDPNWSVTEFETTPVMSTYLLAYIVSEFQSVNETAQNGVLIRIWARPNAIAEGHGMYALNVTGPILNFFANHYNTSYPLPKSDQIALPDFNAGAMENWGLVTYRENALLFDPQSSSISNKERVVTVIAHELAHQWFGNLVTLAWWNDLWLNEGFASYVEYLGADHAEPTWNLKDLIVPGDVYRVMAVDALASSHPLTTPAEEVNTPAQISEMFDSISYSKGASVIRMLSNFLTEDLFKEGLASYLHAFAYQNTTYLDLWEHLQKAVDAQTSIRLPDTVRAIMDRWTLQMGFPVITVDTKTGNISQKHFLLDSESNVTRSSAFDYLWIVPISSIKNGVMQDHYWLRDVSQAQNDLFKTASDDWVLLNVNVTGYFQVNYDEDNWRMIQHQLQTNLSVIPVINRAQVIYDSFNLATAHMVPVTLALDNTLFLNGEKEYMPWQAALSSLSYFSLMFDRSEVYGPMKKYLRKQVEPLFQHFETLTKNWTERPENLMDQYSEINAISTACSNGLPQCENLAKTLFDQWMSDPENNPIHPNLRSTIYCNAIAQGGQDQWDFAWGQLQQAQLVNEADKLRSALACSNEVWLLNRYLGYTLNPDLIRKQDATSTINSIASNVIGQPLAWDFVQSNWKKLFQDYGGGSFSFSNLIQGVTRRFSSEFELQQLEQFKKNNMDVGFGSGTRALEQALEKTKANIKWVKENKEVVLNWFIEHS
observed.property: pIC50
Value format note: pIC50 is -log10 of concentration (mol/L); just state the number.

Reference set, count: 4
>>> print(df.to_string())
                            compound_smiles                    test_target  observed_property  observed
0  N[C@@H](CNC(=O)[C@H](Cc1ccccc1)NC(=O)c1ccc(Cl)cc1Cl)Cc1ccccc1  Aminopeptidase N (Sus scrofa)              pIC50      2.65
1  N[C@@H](CNC(=O)[C@H](Cc1ccccc1)NC(=O)N[C@H](CS)C(=O)O)Cc1ccccc1  Aminopeptidase N (Sus scrofa)              pIC50      4.31
2  NCCCCCC(=O)N[C@@H](Cc1ccccc1)C(=O)NC[C@H](N)Cc1ccccc1  Aminopeptidase N (Sus scrofa)              pIC50      2.81
3  N[C@@H](CNC(=O)[C@H](Cc1ccccc1)NC(=O)CCCCl)Cc1ccccc1  Aminopeptidase N (Sus scrofa)              pIC50      3.16

The record that follows has no pIC50 shown yet.
Input line: Give pIC50 for `CC(C)C[C@H](NC(=O)N[C@@H](C)C(=O)O)C(=O)NC[C@H](N)Cc1ccccc1`
Output line: 3.28
